Test system: Pseudomonas aeruginosa
Test: Antibacterial activity against Pseudomonas aeruginosa at 200 ug/ml after 24 hr by disk diffusion method
Assay type: functional
Conditions: read-out: DIZ
We begin with a simple list: items and their reported zone of inhibition at 200 µg/mL.

Before answering, review these 5 worked examples.
Molecule: CN(C)CN1C(=O)NC(c2ccccc2)(c2ccccc2)C1=O
Measured Target: Pseudomonas aeruginosa
zone of inhibition at 200 µg/mL: 17 mm
//
Molecule: O=C1N(c2ccccc2)C(=O)C(c2ccccc2)(c2ccccc2)N1CNc1nc2ccccc2s1
Measured Target: Pseudomonas aeruginosa
zone of inhibition at 200 µg/mL: 20 mm
//
Molecule: O=C1NC(c2ccccc2)(c2ccccc2)C(=O)N1CN1C(=O)c2ccccc2C1=O
Measured Target: Pseudomonas aeruginosa
zone of inhibition at 200 µg/mL: 10 mm
//
Molecule: CC1(C)S[C@@H]2[C@H](NC(=O)[C@H](N)c3ccccc3)C(=O)N2[C@H]1C(=O)O [AMPICILLIN]
Measured Target: Pseudomonas aeruginosa
zone of inhibition at 200 µg/mL: 23 mm
//
Molecule: CN1CCN(CN2C(=O)N(c3ccccc3)C(=O)C2(c2ccccc2)c2ccccc2)CC1
Measured Target: Pseudomonas aeruginosa
zone of inhibition at 200 µg/mL: 10 mm

# zone of inhibition at 200 µg/mL of CN1CCN(CN2C(=O)NC(c3ccccc3)(c3ccccc3)C2=O)CC1 = 10 mm

# zone of inhibition at 200 µg/mL of O=C1NC(c2ccccc2)(c2ccccc2)C(=O)N1Cn1nnc2ccccc21 = 14 mm

# zone of inhibition at 200 µg/mL of O=C1N(c2ccccc2)C(=O)C(c2ccccc2)(c2ccccc2)N1Cn1ccnc1 = 18 mm
